The values you see were collected from patent US20230338555A1.

# assaySystem: T1, human sortilin stably expressed on HEK 293 cells (HEK-SORT1 cells) (human, UniProt Q99523 78-831)
# T1 sequence (looked up): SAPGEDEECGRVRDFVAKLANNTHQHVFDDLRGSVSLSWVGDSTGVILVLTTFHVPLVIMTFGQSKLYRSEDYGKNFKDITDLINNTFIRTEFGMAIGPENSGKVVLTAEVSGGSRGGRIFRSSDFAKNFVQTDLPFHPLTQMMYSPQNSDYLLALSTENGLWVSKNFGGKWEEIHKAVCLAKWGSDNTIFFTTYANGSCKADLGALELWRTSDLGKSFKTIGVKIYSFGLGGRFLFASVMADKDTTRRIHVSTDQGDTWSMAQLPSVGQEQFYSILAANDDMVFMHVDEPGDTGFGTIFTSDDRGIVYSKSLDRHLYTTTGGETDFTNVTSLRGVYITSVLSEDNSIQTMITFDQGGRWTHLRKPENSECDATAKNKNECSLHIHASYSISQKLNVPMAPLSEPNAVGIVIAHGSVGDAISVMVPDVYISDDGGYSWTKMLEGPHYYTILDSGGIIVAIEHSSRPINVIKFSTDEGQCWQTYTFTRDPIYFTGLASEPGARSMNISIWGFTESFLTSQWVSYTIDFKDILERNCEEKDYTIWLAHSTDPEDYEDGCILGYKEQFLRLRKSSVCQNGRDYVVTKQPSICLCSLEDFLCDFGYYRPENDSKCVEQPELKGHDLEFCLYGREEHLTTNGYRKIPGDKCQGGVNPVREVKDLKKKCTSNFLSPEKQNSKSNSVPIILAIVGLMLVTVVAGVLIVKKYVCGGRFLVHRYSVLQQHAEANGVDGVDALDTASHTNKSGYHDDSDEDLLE
# testName: cell-based or functional assay
Ends that are not written are not given here.
measuredMetric: Mean Fluorescence Intensity (MFI), uptake 37C-4C, at 1000 nM
The answer is to be given in MFI; state only the numeric part.

{"binder": "KPPPAGSSPGLYENKPRRPYIL (not fully specified (residue 1); also: X side chain clicked via BCN (triazole) and 6-aminohexanol linker to 5' end of oligonucleotide CCAGGCTGGTTATGACTCAG (MOE, 3'-Cy3))", "unitAnnotation": "MFI", "observedValue": 1390}

Req: Give the measured Mean Fluorescence Intensity (MFI), uptake 37C-4C, at 1000 nM of LYENXPRRPYIL (not fully specified; position 1 is SO5P (5-oxoproline); internal lysine (LYEN-K) carries the azido-acetyl group joined to Cy3-BCN reagent (Cy3 label)) [Compound 17-AE-9199, Cy3-labeled [SO5P]LYEN[azido-acetyl-K]PRRPYIL peptide] .
Resp: 1220
